Notes on pKi obtained with 5-hydroxytryptamine receptor 2B (Homo sapiens).
Sequence (P41595 whole entry): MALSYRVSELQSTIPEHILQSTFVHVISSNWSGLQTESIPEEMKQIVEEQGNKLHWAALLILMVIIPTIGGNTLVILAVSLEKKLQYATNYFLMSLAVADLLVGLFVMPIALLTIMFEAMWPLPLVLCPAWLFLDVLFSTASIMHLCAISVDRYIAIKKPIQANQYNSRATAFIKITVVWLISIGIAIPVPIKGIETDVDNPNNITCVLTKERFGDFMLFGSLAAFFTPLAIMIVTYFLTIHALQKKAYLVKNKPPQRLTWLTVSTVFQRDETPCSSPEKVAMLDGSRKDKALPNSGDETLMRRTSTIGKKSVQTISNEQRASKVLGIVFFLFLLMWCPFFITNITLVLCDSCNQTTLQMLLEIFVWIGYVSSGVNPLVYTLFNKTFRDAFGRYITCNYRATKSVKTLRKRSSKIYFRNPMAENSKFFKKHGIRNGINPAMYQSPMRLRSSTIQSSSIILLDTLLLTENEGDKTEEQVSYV
pKi here: minus log base 10 of the concentration, concentration in moles per litre.

# molecule, pKi
rows = [
    ("NC[C@@H]1C[C@H]1c1ccccc1Br (relative stereo)", 7.66),
]

For the next question, use this molecule.
Input `NC[C@H]1C[C@@H]1c1ccccc1Br` . Output pKi: 7.80

====

Target: UniProt P28335
Sequence (P28335 whole entry): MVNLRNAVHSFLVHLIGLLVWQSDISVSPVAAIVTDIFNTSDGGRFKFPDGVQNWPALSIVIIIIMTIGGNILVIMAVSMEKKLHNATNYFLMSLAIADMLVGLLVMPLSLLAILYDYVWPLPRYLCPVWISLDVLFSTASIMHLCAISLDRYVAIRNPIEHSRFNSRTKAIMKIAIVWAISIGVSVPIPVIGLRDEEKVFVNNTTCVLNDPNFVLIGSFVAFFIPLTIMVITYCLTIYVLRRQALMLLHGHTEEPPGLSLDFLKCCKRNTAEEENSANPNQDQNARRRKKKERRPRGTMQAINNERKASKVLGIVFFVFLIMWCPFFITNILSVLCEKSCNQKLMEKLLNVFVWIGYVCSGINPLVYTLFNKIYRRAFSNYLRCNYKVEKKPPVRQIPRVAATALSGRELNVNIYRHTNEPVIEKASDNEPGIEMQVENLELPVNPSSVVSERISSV
Test: Agonist activity at human 5HT2C receptor expressed in HEK293 cells assessed as calcium flux by FLIPR assay
Recorded pEC50 by entry
Here pEC50 is given on a logarithmic scale as minus log10 of the concentration in mol/L.

These solved cases illustrate the format of a correct answer.
# molecule, system tested, pEC50
data = [
    ("NC[C@@H]1C[C@H]1c1ccccc1 (relative stereo)", "UniProt P28335", 7.89),
    ("NC[C@H]1C[C@@H]1c1cccc(C#CCCCCO)c1 (relative stereo)", "UniProt P28335", 6.48),
    ("N[C@@H]1C[C@H]1c1ccccc1.N[C@H]1C[C@@H]1c1ccccc1 (racemic)", "UniProt P28335", 5.57),
    ("C#Cc1cccc([C@H]2C[C@@H]2CN)c1 (relative stereo)", "UniProt P28335", 6.87),
    ("NC[C@H]1C[C@@H]1c1ccccc1", "UniProt P28335", 8.28),
    ("NC[C@H]1C[C@@H]1c1cccc(-c2ccc(F)cc2)c1 (relative stereo)", "UniProt P28335", 6.16),
    ("NC[C@H]1C[C@@H]1c1ccccc1Br", "UniProt P28335", 9.11),
    ("c1cc2c3c(c1)c1c(n3CCNC2)CCCC1", "UniProt P28335", 6.58),
    ("NC[C@H]1C[C@@H]1c1cccc(NCc2ccccc2)c1 (relative stereo)", "UniProt P28335", 5.93),
    ("NC[C@H]1C[C@@H]1c1cccc(-c2ccc(Cl)cc2)c1 (relative stereo)", "UniProt P28335", 5.80),
]

Measured pEC50 (UniProt P28335), entry `NC[C@@H]1C[C@H]1c1ccccc1` : 6.04

Entry NC[C@@H]1C[C@H]1c1ccccc1Br (relative stereo) under UniProt P28335 had pEC50 of 8.89

Item `NC[C@@H]1C[C@H]1c1ccccc1Br` ; assay system UniProt P28335; pEC50 reported as 7.11

Measured pEC50 for this entry NC[C@H]1C[C@@H]1c1ccc(-c2ccco2)cc1 (relative stereo) on UniProt P28335: 5.92

====

Species: Homo sapiens
Test: Selectivity ratio of EC50 for human 5HT2B receptor to EC50 for human 5HT2C receptor
Class key for Ratio EC50 values: group A = under 1, group B = from 1 up to 7, group C = 7 and over

# compound, assigned label
data = [
    ("NC[C@H]1C[C@@H]1c1ccc(F)cc1Cl (relative stereo)", "group C"),
    ("NC[C@H]1C[C@@H]1c1ccc(F)cc1F (relative stereo)", "group C"),
    ("NC[C@H]1C[C@@H]1c1ccc(Br)cc1 (relative stereo)", "group C"),
    ("NC[C@H]1C[C@@H]1c1ccc(Cl)cc1F (relative stereo)", "group B"),
    ("Cc1ccc([C@H]2C[C@@H]2CN)c(Br)c1 (relative stereo)", "group B"),
]

[ask] Which Ratio EC50 band matches NC[C@H]1C[C@@H]1c1ccccc1C#CCCCCO (relative stereo) ?
[reply] group A

[ask] For this compound, which bin applies? NC[C@H]1C[C@@H]1c1ccccc1Cl (relative stereo)
[reply] group B

[ask] Which Ratio EC50 band matches Cc1cc([C@H]2C[C@@H]2CN)ccc1F (relative stereo) ?
[reply] group A

Values from ChEMBL document CHEMBL1153382
